# System: NB4 acute promyelocytic leukaemia cell line
# Method Notes: Cytotoxicity test (sulphorodamine B), NB4
# Type: cell-based, human
# Condition Label: Homo sapiens, 24 h incubation, survival 48 h after removal, read-out: IC50 ± SD
Property Label: IC50
# number then unit; no other words

Data point: COc1ccc(-c2ccc(/C=C/C(=O)O)cc2)cc1C12CC3CC(CC(C3)C1)C2 ; IC50 = 8.8 µM

Cited source for all entries: patent US7449495B2
